assay: total protein half-life in vivo (active degradation + dilution); higher = more stable protein; conditions: wild type E. coli NCM3722; growth: C-lim chemostat; doubling time 6 h

Residue String	total protein half-life in vivo / h
MWYQKTLTLSAKSRGFHLVTDEILNQLADMPRVNIGLLHLLLQHTSASLTLNENCDPTVRHDMERFFLRTVPDNGNYEHDYEGADDMPSHIKSSMLGTSLVLPVHKGRIQTGTWQGIWLGEHRIHGGSRRIIATLQGE [P0AF48]	4.74
MPVRASIEPLTWENAFFGVNSAIVRITSEAPLLTPDALAPWSRVQAKIAASNTGELDALQQLGFSLVEGEVDLALPVNNASDSGAVVAQETDIPALRQLASAAFAQSRFRAPWYAPDASSRFYAQWIENAVRGTFDHQCLILRAASGDIRGYVSLRELNATDARIGLLAGRGAGAELMQTALNWAYARGKTTLRVATQMGNTAALKRYIQSGANVESTAYWLYR	5.9
MLDNVLRIATRQSPLALWQAHYVKDKLMASHPGLVVELVPMVTRGDVILDTPLAKVGGKGLFVKELEVALLENRADIAVHSMKDVPVEFPQGLGLVTICEREDPRDAFVSNNYDSLDALPAGSIVGTSSLRRQCQLAERRPDLIIRSLRGNVGTRLSKLDNGEYDAIILAVAGLKRLGLESRIRAALPPEISLPAVGQGAVGIECRLDDSRTRELLAALNHHETALRVTAERAMNTRLEGGCQVPIGSYAELIDGEIWLRALVGAPDGSQIIRGERRGAPQDAEQMGISLAEELLNNGAREILAEVYNGDAPA	5.48

###

assay: total protein half-life in vivo (active degradation + dilution); higher = more stable protein; details: wild type E. coli NCM3722; growth: P-lim chemostat; doubling time 6 h
Quick rule for you: total protein half-life in vivo at 6 h or higher means Criterion met, lower means Criterion not met.

Residue String	Assigned Label
MNIKGKALLAGCIALAFSNMALAEDIKVAVVGAMSGPVAQYGDQEFTGAEQAVADINAKGGIKGNKLQIVKYDDACDPKQAVAVANKVVNDGIKYVIGHLCSSSTQPASDIYEDEGILMITPAATAPELTARGYQLILRTTGLDSDQGPTAAKYILEKVKPQRIAIVHDKQQYGEGLARAVQDGLKKGNANVVFFDGITAGEKDFSTLVARLKKENIDFVYYGGYHPEMGQILRQARAAGLKTQFMGPEGVANVSLSNIAGESAEGLLVTKPKNYDQVPANKPIVDAIKAKKQDPSGAFVWTTYAALQSLQAGLNQSDDPAEIAKYLKANSVDTVMGPLTWDEKGDLKGFEFGVFDWHANGTATDAK [P0AD96]	Criterion not met
MSKAGASLATCYGPVSADVIAKAENIRLLILDVDGVLSDGLIYMGNNGEELKAFNVRDGYGIRCALTSDIEVAIITGRKAKLVEDRCATLGITHLYQGQSNKLIAFSDLLEKLAIAPENVAYVGDDLIDWPVMEKVGLSVAVADAHPLLIPRADYVTRIAGGRGAVREVCDLLLLAQGKLDEAKGQSI [P0ABZ4]	Criterion met
MPHNPIRVVVGPANYFSHPGSFNHLHDFFTDEQLSRAVWIYGKRAIAAAQTKLPPAFGLPGAKHILFRGHCSESDVQQLAAESGDDRSVVIGVGGGALLDTAKALARRLGLPFVAVPTIAATCAAWTPLSVWYNDAGQALHYEIFDDANFMVLVEPEIILNAPQQYLLAGIGDTLAKWYEAVVLAPQPETLPLTVRLGINNAQAIRDVLLNSSEQALSDQQNQQLTQSFCDVVDAIIAGGGMVGGLGDRFTRVAAAHAVHNGLTVLPQTEKFLHGTKVAYGILVQSALLGQDDVLAQLTGAYQRFHLPTTLAELEVDINNQAEIDKVIAHTLRPVESIHYLPVTLTPDTLRAAFKKVESFKA	Criterion not met
MDLQHWQAQFENWLKNHHQHQDAAHDVCHFRRVWATAQKLAADDDVDMLVILTACYFHDIVSLAKNHPQRQRSSILAAEETRRLLREEFEQFPAEKIEAVCHAIAAHSFSAQIAPLTTEAKIVQDADRLEALGAIGLARVFAVSGALGVALFDGEDPFAQHRPLDDKRYALDHFQTKLLKLPQTMQTARGKQLAQHNAHFLVEFMAKLSAELAGENEGVDHKVIDAFSSAG	Criterion not met

###

test: total protein half-life in vivo (active degradation + dilution); higher = more stable protein; settings: wild type E. coli NCM3722; growth: P-lim chemostat; doubling time 12 h

Residue String	Op	total protein half-life in vivo, h
MKTIFTVGAVVLATCLLSGCVNEQKVNQLASNVQTLNAKIARLEQDMKALRPQIYAAKSEANRANTRLDAQDYFDCLRCLRMYAE	>	16
MATDSTQCVKKSRGRPKVFDRDAALDKAMKLFWQHGYEATSLADLVEATGAKAPTLYAEFTNKEGLFRAVLDRYIDRFAAKHEAQLFCEEKSVESALADYFAAIANCFTSKDTPAGCFMINNCTTLSPDSGDIANTLKSRHAMQERTLQQFLCQRQARGEIPPHCDVTHLAEFLNCIIQGMSISAREGASLEKLMQIAGTTLRLWPELVK	=	3.73
MDQVVIFKQIFDKVRNDLNYQWFYSELKRHNVSHYIYYLATENVHIVLKNDNTVLLKGLKNIVSVKFSKDRHLIETTSNKLKSREITFQEYRRNLAKAGVFRWVTNIHEQKRYYYTFDNSLLFTESIQKTTQILPR	=	5.25
MKTLILFSTRDGQTREIASYLASELKELGIQADVANVHRIEEPQWENYDRVVIGASIRYGHYHSAFQEFVKKHATRLNSMPSAFYSVNLVARKPEKRTPQTNSYARKFLMNSQWRPDRCAVIAGALRYPRYRWYDRFMIKLIMKMSGGETDTRKEVVYTDWEQVANFAREIAHLTDKPTLK [P0ACB4]	=	11.9

###

assay: total protein half-life in vivo (active degradation + dilution); higher = more stable protein; conditions: wild type E. coli NCM3722; growth: N-lim chemostat; doubling time 6 h

Residue String	total protein half-life in vivo (h)
MSEGWNIAVLGATGAVGEALLETLAERQFPVGEIYALARNESAGEQLRFGGKTITVQDAAEFDWTQAQLAFFVAGKEATAAWVEEATNSGCLVIDSSGLFALEPDVPLVVPEVNPFVLTDYRNRNVIAVPDSLTSQLLAALKPLIDQGGLSRISVTSLISASAQGKKAVDALAGQSAKLLNGIPIDEEDFFGRQLAFNMLPLLPDSEGSVREERRIVDEVRKILQDEGLMISASVVQAPVFYGHAQMVNFEALRPLAAEEARDAFVQGEDIVLSEENEFPTQVGDASGTPHLSVGCVRNDYGMPEQVQFWSVADNVRFGGALMAVKIAEKLVQEYLY	5.14
MKRTKSIRHASFRKNWSARHLTPVALAVATVFMLAGCEKSDETVSLYQNADDCSAANPGKSAECTTAYNNALKEAERTAPKYATREDCVAEFGEGQCQQAPAQAGMAPENQAQAQQSSGSFWMPLMAGYMMGRLMGGGAGFAQQPLFSSKNPASPAYGKYTDATGKNYGAAQPGRTMTVPKTAMAPKPATTTTVTRGGFGESVAKQSTMQRSATGTSSRSMGG [P0ADT2]	4.08
MRYPVDVYTGKIQAYPEGKPSAIAKIQVDGELMLTELGLEGDEQAEKKVHGGPDRALCHYPREHYLYWAREFPEQAELFVAPAFGENLSTDGLTESNVYMGDIFRWGEALIQVSQPRSPCYKLNYHFDISDIAQLMQNTGKVGWLYSVIAPGKVSADAPLELVSRVSDVTVQEAAAIAWHMPFDDDQYHRLLSAAGLSKSWTRTMQKRRLSGKIEDFSRRLWGK	4.7
MKKRKTVKKRYVIALVIVIAGLITLWRILNAPVPTYQTLIVRPGDLQQSVLATGKLDALRKVDVGAQVSGQLKTLSVAIGDKVKKDQLLGVIDPEQAENQIKEVEATLMELRAQRQQAEAELKLARVTYSRQQRLAQTKAVSQQDLDTAATEMAVKQAQIGTIDAQIKRNQASLDTAKTNLDYTRIVAPMAGEVTQITTLQGQTVIAAQQAPNILTLADMSAMLVKAQVSEADVIHLKPGQKAWFTVLGDPLTRYEGQIKDVLPTPEKVNDAIFYYARFEVPNPNGLLRLDMTAQVHIQLTDVKNVLTIPLSALGDPVGDNRYKVKLLRNGETREREVTIGARNDTDVEIVKGLEAGDEVVIGEAKPGAAQ	6.37
MLEILYQDEWLVAVNKPSGWLVHRSWLDRDEKVVVMQTVRDQIGQHVFTAHRLDRPTSGVLLMGLSSEAGRLLAQQFEQHQIQKRYHAIVRGWLMEEAVLDYPLVEELDKIADKFAREDKGPQPAVTHYRGLATVEMPVATGRYPTTRYGLVELEPKTGRKHQLRRHLAHLRHPIIGDSKHGDLRQNRSGAEHFGLQRLMLHASQLSLTHPFTGEPLTIHAGLDDTWMQALSQFGWRGLLPENERVEFSAPSGQDGEISS [P0AA41]	5.27
MIEADRLISAGTTLPEDVADRAIRPKLLEEYVGQPQVRSQMEIFIKAAKLRGDALDHLLIFGPPGLGKTTLANIVANEMGVNLRTTSGPVLEKAGDLAAMLTNLEPHDVLFIDEIHRLSPVVEEVLYPAMEDYQLDIMIGEGPAARSIKIDLPPFTLIGATTRAGSLTSPLRDRFGIVQRLEFYQVPDLQYIVSRSARFMGLEMSDDGALEVARRARGTPRIANRLLRRVRDFAEVKHDGTISADIAAQALDMLNVDAEGFDYMDRKLLLAVIDKFFGGPVGLDNLAAAIGEERETIEDVLEPYLIQQGFLQRTPRGRMATTRAWNHFGITPPEMP [P0A812]	2.08
MVKTQRVVITPGEPAGIGPDLVVQLAQREWPVELVVCADATLLTNRAAMLGLPLTLRPYSPNSPAQPQTAGTLTLLPVALRAPVTAGQLAVENGHYVVETLARACDGCLNGEFAALITGPVHKGVINDAGIPFTGHTEFFEERSQAKKVVMMLATEELRVALATTHLPLRDIADAITPALLHEVIAILHHDLRTKFGIAEPRILVCGLNPHAGEGGHMGTEEIDTIIPVLNELRAQGMKLNGPLPADTLFQPKYLDNADAVLAMYHDQGLPVLKYQGFGRGVNITLGLPFIRTSVDHGTALELAGRGKADVGSFITALNLAIKMIVNTQ	4.33
MTTLAIDIGGTKLAAALIGADGQIRDRRELPTPASQTPEALRDALSALVSPLQAHAQRVAIASTGIIRDGSLLALNPHNLGGLLHFPLVKTLEQLTNLPTIAINDAQAAAWAEFQALDGDITDMVFITVSTGVGGGVVSGCKLLTGPGGLAGHIGHTLADPHGPVCGCGRTGCVEAIASGRGIAAAAQGELAGADAKTIFTRAGQGDEQAQQLIHRSARTLARLIADIKATTDCQCVVVGGSVGLAEGYLALVETYLAQEPAAFHVDLLAAHYRHDAGLLGAALLAQGEKL	5.02
MTNPQFAGHPFGTTVTAETLRNTFAPLTQWEDKYRQLIMLGKQLPALPDELKAQAKEIAGCENRVWLGYTVAENGKMHFFGDSEGRIVRGLLAVLLTAVEGKTAAELQAQSPLALFDELGLRAQLSASRSQGLNALSEAIIAATKQV [P0AGF2]	4.5
MERFDAIIIGAGAAGMFCSALAGQAGRRVLLIDNGKKPGRKILMSGGGRCNFTNLYVEPGAYLSQNPHFCKSALARFTQWDFIDLVNKHGIAWHEKTLGQLFCDDSAQQIVDMLVDECEKGNVTFRLRSEVLSVAKDETGFTLDLNGMTVGCEKLVIATGGLSMPGLGASPFGYKIAEQFGLNVLPTRAGLVPFTLHKPLLEELQVLAGVAVPSVITAENGTVFRENLLFTHRGLSGPAVLQISSYWQPGEFVSINLLPDVDLETFLNEQRNAHPNQSLKNTLAVHLPKRLVERLQQLGQIPDVSLKQLNVRDQQALISTLTDWRVQPNGTEGYRTAEVTLGGVDTNELSSRTMEARKVPGLYFIGEVMDVTGWLGGYNFQWAWSSAWACAQDLIAAKSS	5.15

Data origin: the supplement of paper PMC11246515
